Values were extracted from PubChem BioAssay (NCI).

# System: LXFL 529 NSCLC
# Test summary: NCI tumour cell line growth inhibition, 48 h
Measured attribute: TGI

Some solved cases for reference:
Compound | Target under test | TGI
CCC1=C(CC2NCCc3ccccc32)CC2c3cc(OC)c(OC)cc3CCN2C1 (centres undefined) | LXFL 529 NSCLC | > 100 µM
CCCCN(CCCC)CC(C(C)=O)C(c1ccccc1)c1c(O)c2ccccc2oc1=O (centres undefined) | LXFL 529 NSCLC | > 100 µM
C[CH2][Sn]([CH2]C)([O]C(=O)c1ccc(F)cc1)[O]C(=O)c1ccc(F)cc1 | LXFL 529 NSCLC | 21.1 µM
COc1cc2cnc3c4cc(OCc5ccccc5)ccc4ccc3c2cc1OC | LXFL 529 NSCLC | > 100 µM
CC(C)(C)c1ccnc(N=C2N=C(Nc3cc(C(C)(C)C)ccn3)c3ccccc32)c1 | LXFL 529 NSCLC | > 100 µM

input: Query: TGI; subject: CC[C@]12C=CCN3CCC4(c5cc([C@@]6(C(=O)OC)CC7CN(CCc8c6[nH]c6ccccc86)CC6CCCCC67)c(OC)cc5N(C)C4[C@](O)(C(=O)OC)C1OC(C)=O)[C@@H]32 (some centres undefined)
output: 12.7 µM

input: Query: TGI; subject: CCC(CO)Nc1nc2c(c(=O)n(C)c(=O)n2C)n1CCO (centres undefined)
output: > 100 µM

input: Query: TGI; subject: CC1=CCCC2C(C=O)(C1)CC(C)C2(CO)CC/C(=C/CO)CO (centres undefined)
output: > 100 µM

input: Query: TGI; subject: CC1c2[nH]c3ccccc3c2CCN1O (centres undefined)
output: > 100 µM

----------
# System: HL-60(TB) leukemia
# Test summary: NCI tumour cell line growth inhibition, 48 h; in the data active = GI50 below about 0.43 µM; inactive = the rest
Numbered stars: 1 amine (or outer) side, 2 acyl side, 3 side chain; on linkers, the order of the positions; unused ones are H or OH. Bridge positions count the residues as written; N and C are the ends. Square brackets hold non-standard residues; d marks the D form. Peptide text beside a SMILES is read from it. I, II: the chains in the order shown. Actinocin(1to9) = Cc1c2oc3c(C)ccc(C(=O)[*:2])c3nc-2c(C(=O)[*:1])c(N)c1=O; NMeY = CN[CH](Cc1ccc(O)cc1)C(=O)O; Sar = CNCC(=O)O
The reply should be one of these categories: True for active, False for inactive

Below are worked cases with known answers.
Compound | Label
CCC[CH2][Sn]1([CH2]CCC)[S]CC[N]1S(=O)(=O)c1ccc(C)cc1 | False
O=C1NC(c2ccccc2)C2(C(=O)O)CN(C3CC3)c3cc(N4CCNCC4)c(F)cc3C2N1 (stereo unspecified) | False
CN(C)CCCNc1nc2ccccc2c2[nH]c3ccccc3c12 | False
COc1ccc(S(=O)(=O)N(C(C)=O)c2ccccc2/C=C/c2cc[n+]([O-])cc2)cc1 | False
CC(C)(C)OC(=O)Nc1ccc2c(c1)C(NC(=O)Nc1cccc(C#N)c1)CC(C)(C)O2 (stereo unspecified) | False

input: Just curious, what result did C=C1CCC2C3(C)COC(c4ccccc4Cl)OC3CCC2(C)C1/C=C/C1=CCOC1=O (stereo unspecified) get here?
output: False

input: Just curious, what result did COc1ccc(CC2C(=O)OC(C)C(NC(=O)c3c4nc5c(C(=O)NC6C(=O)NC(C(C)C)C(=O)N7CCCC7C(=O)N(C)CC(=O)N(C)C(Cc7ccc(OC)cc7)C(=O)OC6C)ccc(C)c5oc-4c(C)c(=O)c3N)C(=O)NC(C(C)C)C(=O)N3CCCC3C(=O)N(C)CC(=O)N2C)cc1 (stereo unspecified) (I: TVP[Sar][NMeY](Me) / II: TVP[Sar][NMeY](Me); ester I:1-I:C, II:1-II:C; linker I:N-II:N via Actinocin(1to9); configuration not given here) get here?
output: True

input: Just curious, what result did `COc1ccc2nc3cc(Cl)ccc3c(Nc3cc(CN4CCCC4)c(O)c(CN4CCCC4)c3)c2n1` get here?
output: False

input: Just curious, what result did `C1=CCCC=CCC1.C[PH+](C)C.C[PH+](C)C.C[PH+](C)C.[Cl-].[Ir]` get here?
output: False

input: Just curious, what result did `Nc1cccc2c1C(=O)c1cccc(NC(=O)c3ccccc3)c1C2=O` get here?
output: True

input: Just curious, what result did `C[N+](C)=c1ccc2nc3c(cc(NCCCNc4cc5oc6cc(=[N+](C)C)ccc-6nc5c5ccccc45)c4ccccc43)oc-2c1` get here?
output: False
